Target: Sulfhydryl oxidase 1 (Homo sapiens)
Assay: QSOX1 enzyme inhibitors, primary screen, biochemical, ROS-Glo H2O2 luminescence, HTS (AID 1347418)
Conditions: recombinant QSOX1, ROS-Glo H2O2 luminescence; at 12.5 µM; active compounds read high; active = any value above zero
About 750 (58%) of roughly 1,300 compounds were called active. The list shows a part of the results.
Please go through the items and note down their inhibition.
Express your answer in %, writing the number without its unit.

Reported inhibition of CCn1nc(C(=O)O)c(=O)c2cc3c(cc21)OCO3 : 3.1

Record NCC1OC(O[C@@H]2[C@H](O)C(OC3C(O)C(N)CC(N)C3OC3OC(CO)C(O)C(O)C3N)O[C@@H]2CO)C(N)C(O)C1O (some centres undefined) . Reported inhibition: -3.5

Measured inhibition of NC(=O)N1c2ccccc2C=Cc2ccccc21 : -1.4

Just so you know, measured inhibition for O=C(N[C@@H](Cc1ccccc1)C(=O)CCl)OCc1ccccc1 came out at -6.4

Field inhibition (entry CC(=O)OCC(=O)[C@@]1(O)CC[C@H]2[C@@H]3CCC4=CC(=O)CC[C@]4(C)[C@H]3C(=O)C[C@@]21C ) reads -7.3

Sample C[C@]12CCC(=O)C=C1CC[C@@H]1[C@@H]2CC[C@@]2(C)[C@H]1CC[C@]2(O)C(=O)CO ; inhibition observed: 1.9

Sample O=C(O)/C=C/c1cnc[nH]1 ; inhibition observed: 1

The recorded inhibition for entry CC(C)NC[C@H](O)COc1cccc2ccccc12 equals -2.1

// field: inhibition; key: CSc1ccccc1N1CCN(CCCCCC(=O)NC2CCCc3ccccc32)CC1 (centres undefined) ; value = -1.2

inhibition for C=CCc1ccccc1OCC(O)CNC(C)C (centres undefined) is 6.4

inhibition reported for this molecule [Li+] : 0

// inhibition lookup, molecule = O=C(CCCCCN1CCN(c2ccccc2-c2ccccc2)CC1)NC1CCCc2ccccc21 (centres undefined) , result: 2.4

Input CC(C)(C)c1ccc(C(O)CCCN2CCC(C(O)(c3ccccc3)c3ccccc3)CC2)cc1 (centres undefined) . Output inhibition: -4

Field inhibition (entry CCOC(=O)C1=C[C@]2(CC)CCCN3CCc4c(n1c1ccccc41)[C@@H]32 ) reads 0.9

// inhibition value for C#C[C@]1(O)CC[C@H]2[C@@H]3CCC4=Cc5oncc5CC4(C)[C@H]3CCC21C (some centres undefined) : 3.6

Recorded result, Cn1cnc2c(NCc3ccccc3)nc(NCCO)nc21 , inhibition: 1.3

Entry O=C(O)Cc1ccc(O)c(O)c1 , inhibition reported as 5.6

Please fill in: inhibition reported for CN(C)CCC(c1ccc(Cl)cc1)c1ccccn1 (centres undefined) = 2.8

Entry Clc1ccc2nsnc2c1NC1=NCCN1 — recorded inhibition = 1.5

The measured inhibition associated with CN(C)CCC(c1ccccc1)c1ccccn1 (centres undefined) reads 1.1

The recorded inhibition for N=c1nc(N2CCCCC2)cc(N)n1O is 1

The reported inhibition of the molecule O=C(O)CC1CCCc2ccccc2C1O (centres undefined) was -2.6

The molecule Cc1cccc(C#Cc2ccccc2)n1 showed inhibition equal to 2.9

Looking up O=C(C1CCCCC1)N1CC(=O)N2CCc3ccccc3C2C1 (centres undefined) , I see its inhibition listed as 1.7

Entry CC(C)C(=O)c1c(C(C)C)nn2ccccc12 — recorded inhibition = -4.2

inhibition for CNc1cc(NS(=O)(=O)c2ccc(N)cc2)nc(NC)n1 is 3.7

inhibition for Cn1ncc(S(=O)(=O)Cc2ccccc2)c(Br)c1=O is -5.4

Reported inhibition for COc1ccccc1N1CCN(CCCCN2C(=O)c3ccccc3C2=O)CC1 was 3.6

inhibition measured on O[Si](CCCN1CCCCC1)(c1ccc(F)cc1)C1CCCCC1 (centres undefined) = -3.8

Reported inhibition of O=C1CCC(N2C(=O)c3ccccc3C2=O)C(=O)N1 (centres undefined) : -1.8

Just so you know, measured inhibition for COc1cc(CC(=O)O)ccc1O came out at 11

Per the record, CC(=O)[C@@]1(O)CC[C@H]2[C@@H]3CCC4=CC(=O)CC[C@]4(C)[C@H]3CC[C@@]21C has inhibition of -1

Recorded inhibition (molecule CCCCCCCC/C=C\CCCCCCCC(=O)NCc1ccc(O)c(OC)c1 ): -4.3

Entry under test: C[C@@H](CN1CCC(Cc2ccccc2)CC1)[C@@H](O)c1ccc(O)cc1 . Its inhibition was 3.4

Lab book: inhibition of CC(C)NCC(O)COc1cccc2ccccc12 (centres undefined) noted as -1.6

What the record says about COc1cccc(C(=O)NCCN2CCN(c3ccc(Cl)cc3)CC2)c1 : inhibition is 21.7

For O=C(NCCN1CCOCC1)c1ccc(Cl)cc1 the molecule record lists inhibition as -3.4

Sure, the documented inhibition for c1cnc(N2CCN(Cc3ccc4c(c3)OCO4)CC2)nc1 is -0.2

Measured inhibition of COc1ccccc1N1CCN(CCN2C(=O)CC3(CCCC3)CC2=O)CC1 : 17.2

The measured inhibition associated with C[C@]12C[C@H](O)[C@H]3[C@@H](CCC4=CC(=O)CC[C@@]43C)[C@@H]1CC[C@@H]2C(=O)CO reads 1

// CNc1ncnc2c1ncn2[C@@H]1O[C@H](CO)[C@H](O)C1O (some centres undefined) : inhibition value = -6.8

Entry under test: CCn1c(=O)[nH]c2cc(Cl)c(Cl)cc21 . Its inhibition was -5.4

Sample CC(C)NCC(O)COc1cccc2[nH]ccc12 (centres undefined) ; inhibition observed: 1.4

Reported inhibition for NCCS was 3.5

====

Molecular target: Sulfhydryl oxidase 1 (Homo sapiens) (UniProt O00391)
Sequence (O00391 whole entry, looked up): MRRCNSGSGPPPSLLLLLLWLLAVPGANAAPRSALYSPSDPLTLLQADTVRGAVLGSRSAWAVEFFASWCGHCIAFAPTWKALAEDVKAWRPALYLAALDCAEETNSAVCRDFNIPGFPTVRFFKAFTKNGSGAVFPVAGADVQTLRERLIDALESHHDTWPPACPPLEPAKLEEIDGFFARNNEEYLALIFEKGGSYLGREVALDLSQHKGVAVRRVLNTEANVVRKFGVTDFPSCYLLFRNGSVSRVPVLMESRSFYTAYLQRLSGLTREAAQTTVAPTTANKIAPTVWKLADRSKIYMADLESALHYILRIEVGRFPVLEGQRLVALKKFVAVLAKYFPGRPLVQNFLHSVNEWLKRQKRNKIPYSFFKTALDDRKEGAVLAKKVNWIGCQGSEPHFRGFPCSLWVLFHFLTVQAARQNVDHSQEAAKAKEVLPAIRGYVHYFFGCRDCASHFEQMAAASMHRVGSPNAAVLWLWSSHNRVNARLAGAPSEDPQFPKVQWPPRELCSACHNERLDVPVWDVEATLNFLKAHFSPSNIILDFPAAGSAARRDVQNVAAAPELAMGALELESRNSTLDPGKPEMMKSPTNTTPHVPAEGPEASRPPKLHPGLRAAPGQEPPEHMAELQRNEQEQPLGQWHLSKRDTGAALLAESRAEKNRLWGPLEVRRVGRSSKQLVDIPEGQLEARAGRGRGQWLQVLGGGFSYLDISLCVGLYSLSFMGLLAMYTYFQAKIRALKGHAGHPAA
Assay: QSOX1 enzyme inhibitors, primary screen, biochemical, ROS-Glo H2O2 luminescence, HTS (AID 1347418)
Details: recombinant QSOX1, ROS-Glo H2O2 luminescence; at 12.5 µM; active compounds read high; active = any value above zero
Screen size: about 1,300 compounds; about 750 (58%) were called active. This is one part of the list.
readout: inhibition (%)
Form entry: value (%) — number only.

Quick note, inhibition for O=C(O)COCCN1CCN(C(c2ccccc2)c2ccc(Cl)cc2)CC1 (stereo not drawn) landed at 0.5

// inhibition lookup, compound = S=C(S)N1CCCC1 , result: 19.5

Measured inhibition, CCCCCC[C@@H]([C@@H](C)O)n1cnc2c(N)ncnc21 : -0.9

Measured inhibition, CC(C)(C)c1onc(OCP(=O)(O)O)c1CC(N)C(=O)O (stereo not drawn) : 4.7

Form: compound = O=c1[nH]c2cc(Cl)ccc2c(O)c1-c1ccc(Oc2ccccc2)cc1 ; inhibition = -2.9

For record NC/C=C/C(=O)O the listed inhibition is -2.4

Note to self: inhibition recorded for CCNC(=O)N1CCN(CCCC(c2ccc(F)cc2)c2ccc(F)cc2)CC1 was -0.9

Item: O=C(O)CCC/C=C\C[C@@H]1[C@@H](/C=C/[C@H](O)C2Cc3ccccc3C2)[C@@H](F)C[C@@H]1O | inhibition: 7.1

The value of inhibition measured for the compound Clc1ccc(N2CCN(Cc3cc4ccccn4n3)CC2)cc1 turned out to be 21.7

Kindly note the recorded inhibition for COCCCC/C(=N\OCCN)c1ccc(C(F)(F)F)cc1 , which is -2

Looking up O=C(O)CCC(C(=O)O)N1C(=O)c2ccccc2C1=O (stereo not drawn) , I found its inhibition recorded as -1

Documented inhibition of O=C(/C=C/c1ccc(O)cc1)c1ccc(O)cc1O : 20.8

Given item CC(=O)N[C@H]1[C@H]([C@H](O)[C@H](O)CO)OC(C(=O)O)=C[C@@H]1O , the value recorded as its inhibition is 10.4

Value of inhibition reported for the compound COc1cc2ncnc(Nc3cccc(Cl)c3)c2cc1OC is -1.3

Noted for NC(N)=NC(=O)c1nc(Cl)c(N2CCCCCC2)nc1N : its inhibition reads 1.7

inhibition measured on O=C(O)/C=C/C(O)c1ccc(Cl)cc1 (stereo not drawn) = -2.6

inhibition measured on c1ccc2c(c1)CC(N1CCN(c3cccc4c3OCCO4)CC1)C2 = 4.5

Value of inhibition reported for the compound CCCCCCCCCC(=O)NC(CN1CCOCC1)[C@H](O)c1ccccc1 (stereo partly drawn) is 4.7

The reported value for CC(=O)[C@]1(O)Cc2c(O)c3c(c(O)c2[C@@H](O[C@H]2C[C@H](N)[C@H](O)[C@H](C)O2)C1)C(=O)c1ccccc1C3=O in terms of inhibition is -0.7

For this compound ( O=C1C2C=CC=CC2=NC(=S)N1CCN1CCC(=C(c2ccc(F)cc2)c2ccc(F)cc2)CC1 (stereo not drawn) ), measured inhibition is 4.4

So, NCCCNCCCCNCCCN ? Its inhibition was -1.8

# compound CN1[C@@H](CC(=O)c2ccccc2)CCC[C@H]1C[C@H](O)c1ccccc1 ; its inhibition = 4.3

GET /value?item= Ic1ccc(N2CCN(Cc3c[nH]c4ncccc34)CC2)cc1 &field=inhibition returns 15.6

Quick note, inhibition for CC(N=C(NC#N)Nc1ccncc1)C(C)(C)C (stereo not drawn) landed at 4.4

Record Clc1ccc(Cn2c(CN3CCCC3)nc3ccccc32)cc1 , field inhibition: -0.7

CN1CCC2(CCN3CCc4c(oc5ccccc45)C3C2)N(C)C1=O (stereo not drawn) has a reported inhibition of -6.5

Notebook: OC1(c2ccc(Cl)cc2)CCN(Cc2c[nH]c3ccccc23)CC1 , inhibition read as -1.5

For this compound ( NC(N)=NC(=O)c1nc(Cl)c(N)nc1N ), measured inhibition is -2.5

So for COC(=O)c1c(C)[nH]c(C)c1C(=O)c1ccccc1Cc1ccccc1 , the logged inhibition turned out to be 1.9

Consider CC(=O)[C@H]1CC[C+]2C3CC=C4C[C@@H](OS(=O)(=O)[O-])CC[C@]4(C)C3CC[C@@]21C (stereo partly drawn) . Its measured inhibition is 1.8

Lab note: NCCCCC(=O)O gave inhibition of -2.5

Field inhibition (entry N#CC(=C(\N)Sc1ccccc1N)/C(C#N)=C(/N)Sc1ccccc1N ) reads 44.1

In plain terms, Cn1cc(C(F)(F)F)nc1-c1ccc(OCC(O)CNCCOc2ccc(O)c(C(N)=O)c2)cc1 (stereo not drawn) has a documented inhibition of 5.6

Reported inhibition for CC(C)(C)c1ccc(C(=O)CCCN2CCC(OC(c3ccccc3)c3ccccc3)CC2)cc1 was -3.2

inhibition recorded for this compound, O=C(CCc1ccc(O)cc1)c1c(O)cc(O)cc1O , is 6.2

Note to self: inhibition recorded for COc1cccc(OC)c1OCCNCC1COc2ccccc2O1 (stereo not drawn) was 1.9

Lab note: CC(C)(C)c1ccc(S(=O)(=O)/C=C/C#N)cc1 gave inhibition of 1.2

// field: inhibition; key: O=C(O)c1cccnc1C(=O)O ; value = -3
